Give self-splicing fitness (ln) for every item shown.
PROTOCOL_DESCRIPTION: self-splicing fitness, log relative to wild type (ln ratio); higher = more splicing; Tetrahymena group I intron in knt gene, E. coli kanamycin selection, DiMSum; sequences stand for … in CUCUCU…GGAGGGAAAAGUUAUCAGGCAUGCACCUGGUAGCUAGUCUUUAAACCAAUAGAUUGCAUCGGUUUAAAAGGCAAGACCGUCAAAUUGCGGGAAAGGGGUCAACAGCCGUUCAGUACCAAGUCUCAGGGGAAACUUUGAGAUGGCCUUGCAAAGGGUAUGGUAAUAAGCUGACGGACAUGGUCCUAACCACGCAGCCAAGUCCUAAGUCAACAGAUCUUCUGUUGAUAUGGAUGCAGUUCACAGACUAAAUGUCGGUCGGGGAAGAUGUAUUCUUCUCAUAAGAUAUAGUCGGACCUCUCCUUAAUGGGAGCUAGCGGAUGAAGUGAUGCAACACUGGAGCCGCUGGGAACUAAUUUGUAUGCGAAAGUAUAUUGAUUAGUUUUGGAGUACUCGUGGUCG;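 also: selection with 25 µg/mL kanamycin versus none on LB agar overnight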
ASSAY_CONTEXT: 30 °C

Sample records with self-splicing fitness (ln):
AAUUAGCAAUAUUACGGUUU ... -1.16
CGUCAGCAAUAUUACGCUCC ... -1.3
AAUCAGCAAUAUUACGCACC ... -0.409
GUAAAGCAAUAUUACGAGGG ... -3.57
UUUUAGCAAUAUUACGACUG ... -0.652

Give measured self-splicing fitness (ln) for every item shown.
1. AUGCAGCAAUAUUACGUGGU
2. CGUAAGCAAUAUUACGGGGC
3. UUCUAGCAAUAUUACGUCUC
4. CCAUAGCAAUAUUACGUUGC
5. ACCCAGCAAUAUUACGAAUC
6. ACUUAGCAAUAUUACGUGUU
7. AAAAAGCAAUAUUACGAUAC
8. AGCCAGCAAUAUUACGAUCU

## Result
-2.7
-3.43
-3.85
-4.15
-2.13
-3.22
-2.28
-0.174

Quick request: self-splicing fitness (ln) for each listed item, please.
1. UGGCAGCAAUAUUACGAUGU
2. CGGUAGCAAUAUUACGCGUU
3. UUUCAGCAAUAUUACGUAGG
4. GAGUAGCAAUAUUACGCACU
5. GUCGAGCAAUAUUACGUGAA
6. GCGCAGCAAUAUUACGCAAG
7. AAAUAGCAAUAUUACGGUAA

## Result
1. -4.09
2. -3.55
3. -0.515
4. -3.18
5. -1.6
6. -3.82
7. -2.14
